Attribution: ChEMBL document CHEMBL6153125

Molecular target: ATP-dependent Clp protease proteolytic subunit, mitochondrial (Homo sapiens)
Sequence (Q16740 whole entry): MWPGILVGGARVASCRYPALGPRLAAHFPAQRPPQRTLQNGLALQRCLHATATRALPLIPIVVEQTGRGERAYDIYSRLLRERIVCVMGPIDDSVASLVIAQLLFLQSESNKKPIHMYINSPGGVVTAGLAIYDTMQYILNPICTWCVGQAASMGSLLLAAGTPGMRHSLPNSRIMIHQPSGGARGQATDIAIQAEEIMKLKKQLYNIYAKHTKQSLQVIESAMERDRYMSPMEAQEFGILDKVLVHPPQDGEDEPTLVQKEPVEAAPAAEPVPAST
Assay: Activation of human ClpP extracted from Escherichia coli using Ac-WLA-AMC as substrate assessed as fluorescence signal measured after 10 mins incubation
pEC50: −log10 of the molar value.
property.name: pEC50

Worked cases, pEC50 given:
COc1cccc(CN2Cc3c(nc(NCc4ccc(C(F)(F)F)cc4)[nH]c3=O)C[C@H]2C)c1: 6.00
O=C1C2=C(CCN(Cc3ccccc3)C2)N2CCN=C2N1Cc1ccc(C(F)(F)F)cc1: 6.81
O=c1nc(NCc2ccc(C(F)(F)F)cc2)[nH]c2c1CN(Cc1ccccc1)CC2: 5.62
C[C@@H]1Cc2nc(NCc3ccc(C(F)(F)F)cc3)[nH]c(=O)c2CN1CC1CCCCC1: 6.52
C[C@@H]1Cc2nc(NCc3ccc(C(F)(F)F)cc3)[nH]c(=O)c2CN1Cc1cccc(C#N)c1: 7.25
Cc1cc(Br)ccc1CNc1nc2c(c(=O)[nH]1)CN(Cc1cccc(C#N)c1)[C@H](C)C2: 7.03
C[C@@H]1Cc2nc(NCc3ccc(C(F)(F)F)cc3)[nH]c(=O)c2CN1Cc1cccc(F)c1: 6.57
Cc1cccc(CNc2nc3c(c(=O)[nH]2)CN(Cc2cccc(C#N)c2)[C@H](C)C3)c1: 6.95
C[C@@H]1Cc2nc(NCc3ccc(C(F)(F)F)cc3)[nH]c(=O)c2CN1Cc1ccccc1: 7.19
C[C@@H]1Cc2nc(NCc3ccc(C(F)(F)F)cc3)[nH]c(=O)c2CN1Cc1ccccc1O: 6.07

(1) C[C@@H]1Cc2nc(NCc3ccc(Br)c(F)c3)[nH]c(=O)c2CN1Cc1cccc(C#N)c1
(2) C[C@@H]1Cc2nc(NCc3ccc(C(F)(F)F)cc3)[nH]c(=O)c2CN1Cc1cccc2ccccc12
### Prompt Among 1 and 2 , whose measured pEC50 is the smaller figure? Answer format: the label of the selected item.
### Response 2
(2: 6.12, 1: 6.58)

----------
System: OCI-Ly10
Assay: Antiproliferative activity against human OCI-Ly10 cells assessed as cell viability measured after 72 hrs incubation by CellTiter-based growth inhibition assay
Conditions: OCI-Ly10, 72 h
property.name: IC50 (nM)

Worked cases, IC50 given:
Cc1cccc(CNc2nc3c(c(=O)[nH]2)CN(Cc2cccc(C#N)c2)[C@H](C)C3)c1: 148
C[C@@H]1Cc2nc(NCc3ccc(C(F)(F)F)cc3)[nH]c(=O)c2CN1Cc1cccc(F)c1: 153
C[C@@H]1Cc2nc(NCc3cccc(Br)c3)[nH]c(=O)c2CN1Cc1cccc(C#N)c1: 89.1
C[C@@H]1Cc2nc(NCc3ccc(C(F)(F)F)cc3)[nH]c(=O)c2CN1Cc1cccc(C#N)c1: 41.6
C[C@@H]1Cc2nc(NCc3ccccc3Br)[nH]c(=O)c2CN1Cc1cccc(C#N)c1: 119
C[C@@H]1Cc2nc(NCc3ccc(C(F)(F)F)cc3)[nH]c(=O)c2CN1Cc1ccc(F)cc1: 1080

(I) C[C@@H]1Cc2nc(NCc3ccc(C(F)(F)F)cc3)[nH]c(=O)c2CN1Cc1cccc2ccccc12
(II) Cc1ccc(CNc2nc3c(c(=O)[nH]2)CN(Cc2cccc(C#N)c2)[C@H](C)C3)cc1
### Prompt Which numeric IC50 is bigger, that of I or that of II ? Answer format: the label of the selected item.
### Response I
(I: 8210 nM, II: 117 nM)
